Molecular target: T1, Human CD137 ECD (human)
T1 construct: also called 4-1BB
T1 sequence (chain, as listed by the source limits assumed): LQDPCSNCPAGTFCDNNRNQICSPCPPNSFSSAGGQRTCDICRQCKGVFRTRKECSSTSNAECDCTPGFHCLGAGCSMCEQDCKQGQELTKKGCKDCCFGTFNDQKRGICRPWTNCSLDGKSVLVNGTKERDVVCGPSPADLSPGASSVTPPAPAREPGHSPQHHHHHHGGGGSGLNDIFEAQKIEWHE
Experiment: single mutant vs template dBBDu183H
For each entry below, report its fold change of affinity value.
Form entry: value (fold) — number only.

q: Endpoint output: fold change of affinity of H183/L072 VH F27L (antibody, name in Kabat numbering, V domains shown) VH: QVQLVESGGGLVQPGRSLRLSCAASGLTFSNAWMHWVRQAPGKGLEWVAQIKDKGNAYAAYYAPSVKGRFTISRDDSKNSIYLQMNSLKTEDTAVYYCHYVHYASASTVLPAFGVDAWGQGTTVTVSS VL: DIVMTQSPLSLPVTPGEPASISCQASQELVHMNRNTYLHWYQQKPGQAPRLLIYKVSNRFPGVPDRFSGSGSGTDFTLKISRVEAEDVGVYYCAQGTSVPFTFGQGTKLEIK . Value?
a: 0.5

q: Endpoint output: fold change of affinity of H183/L072 VH H35T (antibody, name in Kabat numbering, V domains shown) VH: QVQLVESGGGLVQPGRSLRLSCAASGFTFSNAWMTWVRQAPGKGLEWVAQIKDKGNAYAAYYAPSVKGRFTISRDDSKNSIYLQMNSLKTEDTAVYYCHYVHYASASTVLPAFGVDAWGQGTTVTVSS VL: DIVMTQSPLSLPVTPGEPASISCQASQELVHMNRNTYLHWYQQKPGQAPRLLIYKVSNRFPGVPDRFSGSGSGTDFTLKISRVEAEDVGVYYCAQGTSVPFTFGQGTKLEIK . Value?
a: 0.5

q: Endpoint output: fold change of affinity of H183/L072 VH A32N (antibody, name in Kabat numbering, V domains shown) VH: QVQLVESGGGLVQPGRSLRLSCAASGFTFSNNWMHWVRQAPGKGLEWVAQIKDKGNAYAAYYAPSVKGRFTISRDDSKNSIYLQMNSLKTEDTAVYYCHYVHYASASTVLPAFGVDAWGQGTTVTVSS VL: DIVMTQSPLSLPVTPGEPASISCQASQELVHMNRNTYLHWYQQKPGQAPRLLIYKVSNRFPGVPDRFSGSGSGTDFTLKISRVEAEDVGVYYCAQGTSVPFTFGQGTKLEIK . Value?
a: 0.3

q: Endpoint output: fold change of affinity of H183/L072 VH A57Q (antibody, name in Kabat numbering, V domains shown) VH: QVQLVESGGGLVQPGRSLRLSCAASGFTFSNAWMHWVRQAPGKGLEWVAQIKDKGNAYAQYYAPSVKGRFTISRDDSKNSIYLQMNSLKTEDTAVYYCHYVHYASASTVLPAFGVDAWGQGTTVTVSS VL: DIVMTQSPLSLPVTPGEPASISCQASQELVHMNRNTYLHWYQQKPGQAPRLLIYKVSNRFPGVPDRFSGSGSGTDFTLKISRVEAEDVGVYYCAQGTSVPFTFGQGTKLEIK . Value?
a: 0.9

q: Endpoint output: fold change of affinity of H183/L072 VH S30R (antibody, name in Kabat numbering, V domains shown) VH: QVQLVESGGGLVQPGRSLRLSCAASGFTFRNAWMHWVRQAPGKGLEWVAQIKDKGNAYAAYYAPSVKGRFTISRDDSKNSIYLQMNSLKTEDTAVYYCHYVHYASASTVLPAFGVDAWGQGTTVTVSS VL: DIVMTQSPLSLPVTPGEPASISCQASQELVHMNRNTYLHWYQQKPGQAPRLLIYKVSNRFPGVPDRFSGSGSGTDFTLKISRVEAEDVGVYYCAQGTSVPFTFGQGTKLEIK . Value?
a: 0.7
